Would you kindly list viability for each of these molecules?
- TEST_SUMMARY: reducers of endogenous Her2 protein level, primary screen, SKBR3 breast tumor cells, AlphaScreen, ATP viability (AID 461);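 also: percent of carrier control wells set as 100% viability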
- CONDITION_INFO: 18-24 h, measured here: SKBR3 viability, ATP luminescence, at 10 µM
Answers are plain numbers, in %.

MOLECULE | viability / %
CCOC(=O)C1=C(c2ccccc2)Nc2nc(C)nn2C1c1cccc(OC)c1OC (configuration not stated) | 111
COc1ccc(CCNC(=O)C2CCN(S(=O)(=O)c3cc(OC)ccc3OC)CC2)cc1 | 93
C=CCn1c(CC#N)nnc1N1CCOCC1 | 90.5
CCOc1ccc(NC(=O)c2ccccc2O)cc1 | 87.5

Need viability for each of these molecules.
1. O=C(Nc1ccc(Br)cc1F)c1sccc1-n1cccc1
2. CCOc1ccc(-c2nnn(CC(=O)N3CCN(c4ccc(F)cc4)CC3)n2)cc1OCC
3. Cc1cc(C)c(C)c(OCC(=O)NCC2CCCO2)c1 (configuration not stated)
4. CCC(C)NC(=O)CC1Oc2ccc(C)cc2NC1=O (configuration not stated)
5. CCN1CCCC1CN=Cc1c(O)n(-c2ccccc2)c(=O)c2ccccc12 (configuration not stated)
6. Cc1cccc(C2CC(c3ccc(Br)cc3)Nc3nc(N)nn32)c1 (configuration not stated)
7. CC(C)c1ccc(S(=O)(=O)N2CCN(C(=O)c3cccc(F)c3)CC2)cc1
8. CCOC(=O)c1cccc(NC(=O)CSc2nnc(C3CCCCC3)n2C)c1

[87.5, 111, 85, 105, 82, 92.5, 106, 91]
